# key: entry, value: Ki
# tested_target: T1, human leukocyte cathepsin G (human, UniProt P08311 21-244)
# T1 construct: mature; Active enzyme purified from human neutrophils; also called hCG; human Cathepsin G
# T1 sequence (looked up): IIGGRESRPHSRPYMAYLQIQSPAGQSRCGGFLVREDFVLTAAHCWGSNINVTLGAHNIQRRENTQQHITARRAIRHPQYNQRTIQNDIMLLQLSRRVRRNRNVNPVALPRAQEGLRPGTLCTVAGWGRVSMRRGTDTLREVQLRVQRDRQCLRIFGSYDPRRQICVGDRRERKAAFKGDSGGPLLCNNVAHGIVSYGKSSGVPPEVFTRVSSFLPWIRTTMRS
# protocol_summary: hCG enzyme inhibition kinetics, cleavage of Suc-AAPF-NA
State just the number; it will be interpreted in µM.

Please review the entries below; each comes with its answer.
DILIFWSKDIGYSFT (Analog of peptide 6 (CRP62-76) with Glu62 replaced by Asp; also called pep18) [peptide 18]
2.6
ILIFWSKDIGYSFT (Synthetic) [peptide 11 (CRP63-76)]
15
EILIFWPKDIGYSFT (Analog of peptide 6 (CRP62-76) with Ser68 replaced by Pro) [peptide 19]
30

[ask] If you can, please state the reported Ki value of EILIFWSKDI (Synthetic; also called pep14) [peptide 14 (CRP62-71)] .
[reply] 6

[ask] If you can, please state the reported Ki value of EILIFWSKDIGY (Synthetic; also called pep13) [peptide 13 (CRP62-73)] .
[reply] 4
